ASSAY REMARKS: Antihepatotoxic effect: duration of hexobarbital sleep of the rat after liver damage by CCl4
MEASUREMENT CONDITIONS: rat, in vivo, TQ LD50/ED50, antihepatotoxic effect, LD50 mouse i.p. / ED50 rat p.o.; Table V
VALUE TYPE: selectivity ratio
One number for each entry.

[
  {
    "SMILES STR": "CC(=O)N(CCCC(=O)O)c1ccccc1-c1ccccc1",
    "ENDPOINT VALUE": 50
  },
  {
    "SMILES STR": "CC=CC(=O)N(CCCC(=O)O)c1ccccc1-c1ccccc1",
    "ENDPOINT VALUE": 107
  },
  {
    "SMILES STR": "O=C(O)CCCCCN(C(=O)c1ccc(Cl)cc1)c1ccccc1-c1ccccc1",
    "ENDPOINT VALUE": 9.3
  },
  {
    "SMILES STR": "O=C(O)CCCN(C(=O)c1ccc(F)cc1)c1ccccc1-c1ccccc1",
    "ENDPOINT VALUE": 75
  },
  {
    "SMILES STR": "O=C(O)CCCN(C(=O)c1ccc(Cl)cc1)c1ccccc1-c1ccccc1",
    "ENDPOINT VALUE": 51.4
  },
  {
    "SMILES STR": "O=C(O)CCCCN(C(=O)c1ccc(Cl)cc1)c1ccccc1-c1ccccc1",
    "ENDPOINT VALUE": 11.7
  },
  {
    "SMILES STR": "O=C(O)CCCN(C(=O)c1cccc(C(F)(F)F)c1)c1ccccc1-c1ccccc1",
    "ENDPOINT VALUE": 3.7
  }
]

Switching to the query record.
# input molecule: O=C(O)CCCN(C(=O)c1ccc(Cl)cc1)c1ccc(-c2ccccc2)cc1 ; wanted: its selectivity ratio 5.5
